Listing of recorded Lethality by entry.
test system: ICR mice; assay: Acute toxicity test; format: in vivo; parameters: unit not given here; details: female, 42.3 mg/kg i.p.; 10080 min
measured-parameter: Lethality

structure-notation | target-or-test-system | measured-parameter | reading
CC(C)C1O[C@H](CN)[C@@H](CN)O1.O=C1C[O][Pt][O]1 | ICR mice | Lethality | 16.7
NC[C@H]1OC2(CCCC2)O[C@@H]1CN.O=C1C[O][Pt][O]1 | ICR mice | Lethality | 33.3
CCC1O[C@H](CN)[C@@H](CN)O1.O=C1C[O][Pt][O]1 | ICR mice | Lethality | 50.0
CC1(C)O[C@H](CN)[C@@H](CN)O1.O=C1C[O][Pt][O]1 | ICR mice | Lethality | 66.7
